# experimental-system: Angiotensin II receptor (AT-1) type-1 (Rattus norvegicus, UniProt P29089+P25095)
# experiment-summary: Antagonistic activity against Angiotensin II receptor type 1 in rat uterus
# Format: functional, tissue-based
# binarize pA2: threshold 7 inclusive, high side label 1, low side label 0

molecule: CC[C@H](C)[C@H](NC(=O)[C@H](Cc1ccc(OC)cc1)NC(=O)[C@@H](NC(=O)[C@H](CCCN=C(N)N)NC(=O)CNC)C(C)C)C(=O)N[C@@H](Cc1c[nH]cn1)C(=O)N1CCC[C@H]1C(=O)N[C@@H](Cc1ccccc1)C(=O)O
assigned-label: label 1

molecule: CC[C@H](C)[C@H](NC(=O)[C@@H]1CCCN1C(=O)[C@H](Cc1c[nH]cn1)NC(=O)[C@@H](NC(=O)[C@H](Cc1ccc(OC)cc1)NC(=O)[C@@H](NC(=O)[C@H](CCCN=C(N)N)NC(=O)CNC)C(C)C)[C@@H](C)CC)C(=O)O
assigned-label: label 0

molecule: CC[C@H](C)[C@H](NC(=O)[C@H](Cc1ccc(OC)cc1)NC(=O)[C@@H](NC(=O)[C@@H](N)CCCN=C(N)N)C(C)C)C(=O)N[C@@H](Cc1c[nH]cn1)C(=O)N1CCC[C@H]1C(=O)N[C@@H](CCO)C(=O)O
assigned-label: label 0

molecule: CC[C@H](C)[C@H](NC(=O)[C@H](Cc1ccc(O)cc1)NC(=O)[C@@H](NC(=O)[C@H](CCCN=C(N)N)NC(=O)CNC)C(C)C)C(=O)N[C@@H](Cc1c[nH]cn1)C(=O)N1CCC[C@H]1C(=O)N[C@@H](CCO)C(=O)O
assigned-label: label 1

molecule: CC[C@H](C)[C@H](NC(=O)[C@H](Cc1ccc(OC)cc1)NC(=O)[C@@H](NC(=O)[C@H](CCCN=C(N)N)NC(=O)[C@@H](N)CC(=O)O)C(C)C)C(=O)N[C@@H](Cc1c[nH]cn1)C(=O)N1CCC[C@H]1C(=O)N[C@@H](CCO)C(=O)O
assigned-label: label 0

molecule: CC[C@H](C)[C@H](NC(=O)[C@H](Cc1ccc(OC)cc1)NC(=O)[C@@H](NC(=O)[C@H](CCCN=C(N)N)NC(=O)CNC)C(C)C)C(=O)N[C@@H](Cc1c[nH]cn1)C(=O)N1CCC[C@H]1C(=O)N[C@@H](CCO)C(=O)O
assigned-label: label 0

molecule: CC[C@H](C)[C@H](NC(=O)[C@H](Cc1ccc(O)cc1)NC(=O)[C@@H](NC(=O)[C@@H](N)CCCN=C(N)N)C(C)C)C(=O)N[C@@H](Cc1c[nH]cn1)C(=O)N1CCC[C@H]1C(=O)N[C@@H](CCO)C(=O)O
assigned-label: label 0

molecule: CC[C@H](C)[C@H](NC(=O)[C@H](Cc1ccc(O)cc1)NC(=O)[C@@H](NC(=O)[C@H](CCCN=C(N)N)NC(=O)[C@@H](N)CC(=O)O)C(C)C)C(=O)N[C@@H](Cc1c[nH]cn1)C(=O)N1CCC[C@H]1C(=O)N[C@@H](CCO)C(=O)O
assigned-label: label 0
